Where these numbers come from: patent US6897319B2

system: voltage-gated sodium channels; assay: [14C]guanidinium flux assay in SK-N-SH cells (veratridine stimulus); format: cell-based; details: 10 μM compound, 100 μM veratridine
Task for the reader: assign each of the following compounds its reported % GFI at 10 μM (% guanidinium flux inhibition).
The response must be a number in % with no trailing unit.

Ask: Which % GFI at 10 μM (% guanidinium flux inhibition) is listed for Cn1cc(C(=O)c2ccc(F)cc2)cc1C(=O)c1ccccn1 ?
Result: 46

Ask: Which % GFI at 10 μM (% guanidinium flux inhibition) is listed for Cn1cc(C(=O)c2cc[n+]([O-])cc2)cc1C(=O)c1ccc(Cl)cc1 ?
Result: 4

Ask: Which % GFI at 10 μM (% guanidinium flux inhibition) is listed for Cn1cc(C(=O)c2ccncc2)cc1C(=O)c1ccc(Cl)cc1 ?
Result: 23

Ask: Which % GFI at 10 μM (% guanidinium flux inhibition) is listed for Cn1cc(C(=O)c2cc[n+](C)cc2)cc1C(=O)c1ccc(Cl)cc1.O.O=S(=O)([O-])C(F)(F)F ?
Result: 14

Ask: Which % GFI at 10 μM (% guanidinium flux inhibition) is listed for Cl.Cn1cc(C(=O)c2cccnc2)cc1C(=O)c1ccc(Cl)cc1.Cn1cc(C(=O)c2cccnc2)cc1C(=O)c1ccc(Cl)cc1.O ?
Result: 55

Ask: Which % GFI at 10 μM (% guanidinium flux inhibition) is listed for Cn1cc(C(=O)c2ccc3ccccc3c2)cc1C(=O)c1cccnc1 ?
Result: 82

Ask: Which % GFI at 10 μM (% guanidinium flux inhibition) is listed for Cn1cc(C(=O)c2cnc[nH]2)cc1C(=O)c1ccc(Cl)cc1 ?
Result: 24

Ask: Which % GFI at 10 μM (% guanidinium flux inhibition) is listed for Cl.Cn1cc(C(=O)c2ccc(F)cc2)cc1C(=O)c1cccnc1 ?
Result: 57

Ask: Which % GFI at 10 μM (% guanidinium flux inhibition) is listed for Cn1cc(C(=O)c2ccc(Cl)cc2)cc1C(=O)c1ccc(Cl)nc1 ?
Result: 31

Ask: Which % GFI at 10 μM (% guanidinium flux inhibition) is listed for Cn1cc(C(=O)c2ccccn2)cc1C(=O)c1ccc(Cl)cc1 ?
Result: 74
